Can you tell me GI50 for the items I'm about to list?
# Tested on: MDA-N
# Assay Protocol: NCI tumour cell line growth inhibition, 48 h
Active and inactive are the calls of the source. Rule as the data show it: active = GI50 up to about 1.1 µM and inactive = higher.

Query: What measured GI50 goes with "CN(N)/N=N/c1[nH]cnc1C(N)=O" ?
Response: 13.4 µM (inactive)

Query: I would be grateful if you could share the reported GI50 for "Nc1ccc(Cc2ccc(/N=C\c3ccc(OCc4cccc(COc5ccc(/C=N\c6ccc(Cc7ccc(N)cc7)cc6)cc5)n4)cc3)cc2)cc1" .
Response: > 100 µM (inactive)

Query: # input compound: "CC1=C(C(=O)NCCCN(CCO)CCO)CC(C(=O)NCCCN(CCO)CCO)=C(C)N1" ; wanted: its GI50
Response: 86.1 µM (inactive)

Query: Can you look up the measured GI50 of "CCOC(=O)c1c[nH]c(C(=O)OCC)c1-c1cccn1-c1ccccc1" for me?
Response: 31.7 µM (inactive)

Query: Which GI50 value is on record for "Cc1ccc2c(c1)[nH]c(=S)n2C=C(C(N)=O)C(N)=O" ?
Response: > 100 µM (inactive)

Query: What measured GI50 goes with Cc1ccc(C)c(NC(=O)C(=O)C(c2cnc3ccc([N+](=O)[O-])cc3n2)[N+](=O)[O-])c1 (configuration not stated) ?
Response: 70.6 µM (inactive)

Query: Field request: GI50 | item: "CCSc1nn(-c2c3ccccc3nc3ccccc23)c(=S)s1"
Response: > 100 µM (inactive)

Query: Form field: reported GI50 of "[O-][n+]1onc(-c2ccccc2)c1-c1no[n+]([O-])c1-c1c(-c2ccccc2)no[n+]1[O-]"
Response: 2.58 µM (inactive)

Query: I have this compound here, "c1ccc(-c2cs[s+]c2)cc1" , and I need its recorded GI50.
Response: > 100 µM (inactive)

Query: Form field: reported GI50 of "COc1ccc2c(c1)CCc1cc(C(N)=O)c3nnnn3c1-2"
Response: > 100 µM (inactive)

Query: Need GI50 of "Cc1ccc(Nc2nc3ccccc3nc2NS(=O)(=O)c2ccc(N)cc2)cc1" , thanks.
Response: 41.4 µM (inactive)

Query: Returns the measured GI50 for the input compound. Input: "CC(=O)Nn1c(Cc2ccc(Cl)cc2)nn(C)c1=O"
Response: > 100 µM (inactive)

---

# System: DMS-273
# Assay Protocol: NCI tumour cell line growth inhibition, 48 h
The source made the active and inactive calls. Rule as the data show it: active = GI50 up to about 1.1 µM and inactive = higher.
I'd be grateful if you could share measured GI50 for these entries.

Query: Which value of GI50 has been reported for "O=[N+]([O-])c1ccc2[nH]c3c(-c4ccccc4)nccc3c2c1" in the records?
Response: 11.9 µM (inactive)

Query: Quick check: GI50 of Nc1ncnc2c1ncn2CCCC(c1ccccc1)P(=O)(O)O (stereo not given) ?
Response: > 100 µM (inactive)

Query: Which GI50 value is on record for "CCCCCCn1c(SCC)c2ccccc2c1-c1nc(F)nc(F)n1" ?
Response: > 100 µM (inactive)

Query: What measured GI50 goes with "O=S(O)CCCSSCCCCSSCCCS(=O)O" ?
Response: > 100 µM (inactive)

Query: Quick one: GI50 of COCC1N=C(c2cc(OC)c(OC)c(OC)c2-c2cc3c(cc2C2OCCCO2)OCO3)O[C@H]1c1ccccc1 (stereo not given in full) ?
Response: > 100 µM (inactive)
